System: Sweetpotato Whitefly-Crawler (WF) (Bemisia tabaci) (BEMITA)
Assay: Insecticidal test for Sweetpotato Whitefly-crawler (WF) in foliar spray assay on cotton plants
Type: in vivo
Conditions: 216 h, 200 ppm foliar spray on cotton plants, graded after 9 days, Abbott corrected % control, read-out: WF % Control (or Mortality) rating
Experimental: Insecticidal Test for Sweetpotato Whitefly-Crawler (WF) (Bemisia tabaci) (BEMITA) in Foliar Spray Assay Cotton plants (Gossypium hirsutum) grown in 3-inch pots, with 1 small (4-5 cm) true leaves, were used as test substrate. […] Percent control was measured by using Abbott's correction formula (W. S. Abbott, “A Method of Computing the Effectiveness of an Insecticide,” J. Econ. Entomol. 18 (1925), pp. 265-267) as follows. […]
What mortality at 200 ppm was measured for each of the following?

Exam item: I would be grateful if you could share the reported mortality at 200 ppm for CSc1cccc(-c2cn(-c3cccnc3)nn2)c1 [Compound F3] .
Marked response: < 0%

Exam item: Record: COc1cccc(-c2cn(-c3cccnc3)nn2)n1 [Compound F5]
Marked response: 0 to 80%

Exam item: One more compound: FC(F)(F)c1cccc(-c2cn(-c3cccnc3)nn2)c1 [Compound F13]
Marked response: < 0%

Data origin: patent US9491944B2
